Taken from ChEMBL document CHEMBL4190326.

# EXPERIMENT DESCRIPTION: Selectivity index, ratio of IC50 for HEK293 cells to IC50 for human DU145 cells
# Type: toxicity
# MEASUREMENT CONDITIONS: HEK293 cells versus DU145 cells, read-out: Ratio IC50
Entries and their selectivity ratio
MEASURED QUANTITY: selectivity ratio

TEST SMILES | MEASURED QUANTITY | VALUE MEASURED
COc1cc2c(c(OC)c1OC)-c1c(cc3c(c1OC)OCO3)C[C@H](C)[C@@](C)(O)/C2=N/OCc1cn(-c2ccccc2C#N)nn1 | selectivity ratio | 1.1
COc1cc2c(c(OC)c1OC)-c1c(cc3c(c1OC)OCO3)C[C@H](C)[C@@](C)(O)/C2=N/OCc1cn(-c2ccc(I)cc2)nn1 | selectivity ratio | 1.1
COc1cc2c(c(OC)c1OC)-c1c(cc3c(c1OC)OCO3)C[C@H](C)[C@@](C)(O)/C2=N/OCc1cn(CC(=O)Nc2ccc(I)cc2Cl)nn1 | selectivity ratio | 1.01
C#CCO/N=C1\c2cc(OC)c(OC)c(OC)c2-c2c(cc3c(c2OC)OCO3)C[C@H](C)[C@@]1(C)O | selectivity ratio | 1.01

====

# EXPERIMENT DESCRIPTION: Selectivity index, ratio of IC50 for HEK293 cells to IC50 for human DU145 cells
# Assay type: toxicity
# MEASUREMENT CONDITIONS: HEK293 cells versus DU145 cells, read-out: Ratio IC50

TEST SMILES | selectivity ratio
COc1cc(-n2cc(CO/N=C3\c4cc(OC)c(OC)c(OC)c4-c4c(cc5c(c4OC)OCO5)C[C@H](C)[C@@]3(C)O)nn2)cc(OC)c1Cl | 1.1
COc1cc2c(c(OC)c1OC)-c1c(cc3c(c1OC)OCO3)C[C@H](C)[C@@](C)(O)C2=O | 1.2
COc1cc2c(c(OC)c1OC)-c1c(cc3c(c1OC)OCO3)C[C@H](C)[C@@](C)(O)/C2=N/OCc1cn(CC(=O)Nc2ccccc2)nn1 | 1.1

====

# EXPERIMENT DESCRIPTION: Selectivity index, ratio of IC50 for HEK293 cells to IC50 for human DU145 cells
# Format: toxicity
# MEASUREMENT CONDITIONS: HEK293 cells versus DU145 cells, read-out: Ratio IC50
The reader will find reported selectivity ratio values listed item by item below.

TEST SMILES | selectivity ratio
COc1cc2c(c(OC)c1OC)-c1c(cc3c(c1OC)OCO3)C[C@H](C)[C@@](C)(O)/C2=N/OCc1cn(-c2ccc(Cl)cc2)nn1 | 1.01
COc1cc2c(c(OC)c1OC)-c1c(cc3c(c1OC)OCO3)C[C@H](C)[C@@](C)(O)/C2=N/OCc1cn(-c2ccc(C(C)=O)cc2)nn1 | 1.08
COc1cc2c(c(OC)c1OC)-c1c(cc3c(c1OC)OCO3)C[C@H](C)[C@@](C)(O)/C2=N/OCc1cn(-c2cccc(C)c2Cl)nn1 | 1.1
COc1cc2c(c(OC)c1OC)-c1c(cc3c(c1OC)OCO3)C[C@H](C)[C@@](C)(O)/C2=N/OCc1cn(-c2cc(C)cc(C)c2)nn1 | 1.1
COc1cc2c(c(OC)c1OC)-c1c(cc3c(c1OC)OCO3)C[C@H](C)[C@@](C)(O)/C2=N/OCc1cn(CC(=O)Nc2ccc(C)cc2)nn1 | 1.15
CCc1ccc(-n2cc(CO/N=C3\c4cc(OC)c(OC)c(OC)c4-c4c(cc5c(c4OC)OCO5)C[C@H](C)[C@@]3(C)O)nn2)cc1 | 1.1
COc1cc2c(c(OC)c1OC)-c1c(cc3c(c1OC)OCO3)C[C@H](C)[C@@](C)(O)[C@H]2O | 1.14
COc1cc2c(c(OC)c1OC)-c1c(cc3c(c1OC)OCO3)C[C@H](C)[C@@](C)(O)/C2=N/O | 1.05
COc1ccc(OC)c(-n2cc(CO/N=C3\c4cc(OC)c(OC)c(OC)c4-c4c(cc5c(c4OC)OCO5)C[C@H](C)[C@@]3(C)O)nn2)c1 | 1.1
COc1cc2c(c(OC)c1OC)-c1c(cc3c(c1OC)OCO3)C[C@H](C)[C@@](C)(O)/C2=N/OCc1cn(-c2cccc([N+](=O)[O-])c2)nn1 | 1
COc1cccc(-n2cc(CO/N=C3\c4cc(OC)c(OC)c(OC)c4-c4c(cc5c(c4OC)OCO5)C[C@H](C)[C@@]3(C)O)nn2)c1 | 1.1
COc1cc2c(c(OC)c1OC)-c1c(cc3c(c1OC)OCO3)C[C@H](C)[C@@](C)(O)/C2=N/OCc1cn(-c2cc([N+](=O)[O-])ccc2Cl)nn1 | 1.1
COc1cc(OC)c(-n2cc(CO/N=C3\c4cc(OC)c(OC)c(OC)c4-c4c(cc5c(c4OC)OCO5)C[C@H](C)[C@@]3(C)O)nn2)cc1OC | 1.1
C/C=C(/C)C(=O)O[C@H]1c2cc(OC)c(OC)c(OC)c2-c2c(cc3c(c2OC)OCO3)C[C@H](C)[C@@]1(C)O | 1.6
